Values from ChEMBL document CHEMBL1143583

measured.target: Genome polyprotein (Hepatitis C virus genotype 1a (isolate 1) (HCV), UniProt P26664)
Sequence (P26664 1027-1657 limits assumed): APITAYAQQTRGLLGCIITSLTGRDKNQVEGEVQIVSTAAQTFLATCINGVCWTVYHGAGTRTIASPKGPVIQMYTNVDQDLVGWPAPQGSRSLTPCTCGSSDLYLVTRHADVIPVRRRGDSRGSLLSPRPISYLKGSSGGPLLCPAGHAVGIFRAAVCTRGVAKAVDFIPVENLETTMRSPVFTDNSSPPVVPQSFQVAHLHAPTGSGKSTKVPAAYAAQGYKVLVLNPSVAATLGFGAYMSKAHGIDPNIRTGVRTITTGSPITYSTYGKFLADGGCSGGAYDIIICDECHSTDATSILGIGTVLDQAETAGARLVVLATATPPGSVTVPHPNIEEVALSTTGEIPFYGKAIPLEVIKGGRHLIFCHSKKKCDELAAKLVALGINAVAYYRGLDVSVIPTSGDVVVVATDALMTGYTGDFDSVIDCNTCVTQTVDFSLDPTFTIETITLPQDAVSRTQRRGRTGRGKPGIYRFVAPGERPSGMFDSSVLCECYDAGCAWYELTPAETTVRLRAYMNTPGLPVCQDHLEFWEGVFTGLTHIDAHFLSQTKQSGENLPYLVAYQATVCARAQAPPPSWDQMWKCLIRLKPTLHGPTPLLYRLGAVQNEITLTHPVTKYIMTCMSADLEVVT
protocol: Inhibitory concentration against hepatitis C virus NS3 protease (IC50 spans 2.5 log units)
Parameters: species or system Hepacivirus hominis
test.settings: read-out: Log 1/IC50 (converted)
// values below are reported log10 of IC50
assay.readout: log10 of IC50 (log10 of the value in µM)

molecule | measured.target | log10 of IC50
CC(=O)N[C@H](C(=O)N[C@H](C(=O)C1C[C@H](Oc2cccnc2)C[C@H]1C(=O)CC1(C(=O)O)CC1)C(C)C)C1CCCCC1 (stereo partly specified) | Genome polyprotein (Hepatitis C virus genotype 1a (isolate 1) (HCV), UniProt P26664) | 2.30
CC(=O)N[C@H](C(=O)N[C@H](C(=O)C1C[C@H](Oc2cccc(N3CCOCC3)c2)C[C@H]1C(=O)CC1(C(=O)O)CC1)C(C)C)C1CCCCC1 (stereo partly specified) | Genome polyprotein (Hepatitis C virus genotype 1a (isolate 1) (HCV), UniProt P26664) | 1.50
CC(=O)N[C@H](C(=O)N[C@H](C(=O)C1C[C@H](Sc2nc3ccccc3s2)C[C@H]1C(=O)CC1(C(=O)O)CC1)C(C)C)C1CCCCC1 (stereo partly specified) | Genome polyprotein (Hepatitis C virus genotype 1a (isolate 1) (HCV), UniProt P26664) | 1.30
CC(=O)N[C@H](C(=O)N[C@H](C(=O)C1C[C@H](Oc2cncc3ccccc23)C[C@H]1C(=O)CC1(C(=O)O)CC1)C(C)C)C1CCCCC1 (stereo partly specified) | Genome polyprotein (Hepatitis C virus genotype 1a (isolate 1) (HCV), UniProt P26664) | 0.60
COc1ccc2c(O[C@H]3CC(C(=O)[C@@H](NC(=O)[C@@H](NC(C)=O)C4CCCCC4)C(C)C)[C@H](C(=O)CC4(C(=O)O)CC4)C3)ccnc2c1 (stereo partly specified) | Genome polyprotein (Hepatitis C virus genotype 1a (isolate 1) (HCV), UniProt P26664) | -0.10

----------
measured.target: Genome polyprotein (Hepatitis C virus genotype 1a (isolate 1) (HCV))
protocol: Inhibitory concentration against hepatitis C virus NS3 protease (IC50 spans 2.5 log units)
Set-up: species or system Hepacivirus hominis
test.settings: read-out: Log 1/IC50 (converted)
IC50 vs 10 µM: less than gives met; not less than gives not met.

compound | measured.target | label.class
CC(=O)N[C@H](C(=O)N[C@H](C(=O)C1C[C@H](Oc2ccc(-c3ccccc3)cc2)C[C@H]1C(=O)CC1(C(=O)O)CC1)C(C)C)C1CCCCC1 (some centres undefined) | Genome polyprotein (Hepatitis C virus genotype 1a (isolate 1) (HCV)) | not met
CC(=O)N[C@H](C(=O)N[C@H](C(=O)C1C[C@H](Sc2ccc(Br)cc2)C[C@H]1C(=O)CC1(C(=O)O)CC1)C(C)C)C1CCCCC1 (some centres undefined) | Genome polyprotein (Hepatitis C virus genotype 1a (isolate 1) (HCV)) | not met
CC(=O)N[C@H](C(=O)N[C@H](C(=O)C1C[C@H](Oc2cccc(-c3ccccc3)c2)C[C@H]1C(=O)CC1(C(=O)O)CC1)C(C)C)C1CCCCC1 (some centres undefined) | Genome polyprotein (Hepatitis C virus genotype 1a (isolate 1) (HCV)) | met
CC(=O)N[C@H](C(=O)N[C@H](C(=O)C1C[C@H](Oc2ccccc2-c2ccc(C(=O)O)cc2)C[C@H]1C(=O)CC1(C(=O)O)CC1)C(C)C)C1CCCCC1 (some centres undefined) | Genome polyprotein (Hepatitis C virus genotype 1a (isolate 1) (HCV)) | not met
CC(=O)N[C@H](C(=O)N[C@H](C(=O)C1C[C@H](Oc2cccc(-c3cccc([N+](=O)[O-])c3)c2)C[C@H]1C(=O)CC1(C(=O)O)CC1)C(C)C)C1CCCCC1 (some centres undefined) | Genome polyprotein (Hepatitis C virus genotype 1a (isolate 1) (HCV)) | met
CC(=O)N[C@H](C(=O)N[C@H](C(=O)C1C[C@H](Oc2ccc(Cl)c3cccnc23)C[C@H]1C(=O)CC1(C(=O)O)CC1)C(C)C)C1CCCCC1 (some centres undefined) | Genome polyprotein (Hepatitis C virus genotype 1a (isolate 1) (HCV)) | not met
CC(=O)N[C@H](C(=O)N[C@H](C(=O)C1C[C@H](Oc2ccnc3ccccc23)C[C@H]1C(=O)CC1(C(=O)O)CC1)C(C)C)C1CCCCC1 (some centres undefined) | Genome polyprotein (Hepatitis C virus genotype 1a (isolate 1) (HCV)) | met
COc1ccc(-c2ccccc2O[C@H]2CC(C(=O)[C@@H](NC(=O)[C@@H](NC(C)=O)C3CCCCC3)C(C)C)[C@H](C(=O)CC3(C(=O)O)CC3)C2)cc1 (some centres undefined) | Genome polyprotein (Hepatitis C virus genotype 1a (isolate 1) (HCV)) | not met
CC(=O)N[C@H](C(=O)N[C@H](C(=O)C1C[C@H](Oc2ccnc3cc(C(F)(F)F)ccc23)C[C@H]1C(=O)CC1(C(=O)O)CC1)C(C)C)C1CCCCC1 (some centres undefined) | Genome polyprotein (Hepatitis C virus genotype 1a (isolate 1) (HCV)) | met
CC(=O)N[C@H](C(=O)N[C@H](C(=O)C1C[C@H](Oc2ccccc2Br)C[C@H]1C(=O)CC1(C(=O)O)CC1)C(C)C)C1CCCCC1 (some centres undefined) | Genome polyprotein (Hepatitis C virus genotype 1a (isolate 1) (HCV)) | not met
CC(=O)N[C@H](C(=O)N[C@H](C(=O)C1C[C@H](Oc2ccc(Cl)cc2)C[C@H]1C(=O)CC1(C(=O)O)CC1)C(C)C)C1CCCCC1 (some centres undefined) | Genome polyprotein (Hepatitis C virus genotype 1a (isolate 1) (HCV)) | not met
CC(=O)N[C@H](C(=O)N[C@H](C(=O)C1C[C@H](Oc2cccnc2-c2ccsc2)C[C@H]1C(=O)CC1(C(=O)O)CC1)C(C)C)C1CCCCC1 (some centres undefined) | Genome polyprotein (Hepatitis C virus genotype 1a (isolate 1) (HCV)) | not met
